Entries and their measured pIC50 follow.
System: Pfa1 cells
Test: Inhibition of non-apoptotic cell death after tamoxifen-induced GPx4 knockout (Pfa1/TAM, Example B.4)
Type: cell-based, mouse
Settings: Mus musculus, tamoxifen on day 0, cell survival after 72 hours
Procedure: To combat high intracellular ROS levels, mammalian cells have evolved an intricate network of ROS scavenging in cells, in which the thioredoxin and glutathione (GSH) dependent systems prevail. […] These cells (Pfa1 cells) were used to characterize compounds disclosed herein, whereby tamoxifen (TAM) was given on day 0 along with the compound under test, and 72 hours later cell survival was evaluated using AlamarBlue.
pIC50: −log10 of the molar value.
Observable: pIC50

| Molecule | Target or test system | Recorded result |
| --- | --- | --- |
| C#CCCCCCCCCC(=O)N1CCC2(CC1)Nc1ccccc1N=C2NCc1cccc(Cl)c1 | Pfa1 cells | > 6.70 |
| c1ccc2c(c1)N=C(NCc1ccncc1)C1(CCCCC1)N2 | Pfa1 cells | > 5.30 |
| c1ccc2c(c1)CCCC2NC1=Nc2ccccc2NC12CCCCC2 (stereo not drawn) | Pfa1 cells | > 6.70 |
| CN1CCC2(CC1)Nc1cc(Cl)c(Cl)cc1N=C2NCc1cccc(Cl)c1 | Pfa1 cells | > 7.30 |
| c1ccc(CNC2=Nc3ccccc3NC23CC2CCC(C3)N2)cc1 (stereo not drawn) | Pfa1 cells | > 6.30 |
| C#CCCCCCCCCC(=O)N1CCC2(CC1)Nc1cc(Cl)c(Cl)cc1N=C2NCc1cccc(Cl)c1 | Pfa1 cells | > 6.70 |
| c1cncc(CNC2=Nc3ccccc3NC23CCCCC3)c1 | Pfa1 cells | > 5.30 |
| c1csc(CNC2=Nc3ccccc3NC23CCNCC3)c1 | Pfa1 cells | > 6.30 |
| Clc1cc2c(cc1Cl)NC1(CCCCC1)C(NCc1cccs1)=N2 | Pfa1 cells | > 6.30 |
| CC(C)(C)NC1=Nc2ccccc2NC12CCSCC2 | Pfa1 cells | > 6.00 |
| CC(C)CCNC1=Nc2ccccc2NC12CCCCCC2 | Pfa1 cells | > 5.70 |
| c1coc(CNC2=Nc3ccccc3NC23CCCCC3)c1 | Pfa1 cells | > 5.30 |
| CC(C)(C)NC1=Nc2ccccc2NC12CCOCC2 | Pfa1 cells | > 5.30 |
| c1ccc2c(c1)N=C(NCc1cncs1)C1(CCCCC1)N2 | Pfa1 cells | > 5.30 |
| Clc1cccc(CNC2=Nc3cc(Cl)ncc3NC23CCCCC3)c1 | Pfa1 cells | > 5.30 |
| Clc1cccc(CNC2=Nc3ncccc3NC23CCCCC3)c1 | Pfa1 cells | > 5.30 |
| c1ccc2c(c1)CCC2NC1=Nc2ccccc2NC12CCOCC2 (stereo not drawn) | Pfa1 cells | > 5.70 |
| c1ccc2c(c1)N=C(NCc1nccs1)C1(CCCCC1)N2 | Pfa1 cells | > 5.30 |
| CCOC(=O)c1ccc2c(c1)N=C(NC1CCCCC1)C1(CCCCC1)N2 | Pfa1 cells | > 6.00 |
| Clc1cccc(CNC2=Nc3ccccc3NC23CC2CCC(C3)N2)c1 (stereo not drawn) | Pfa1 cells | > 7.30 |
| c1ccc2c(c1)CCC2NC1=Nc2ccccc2NC12CCCCC2 (stereo not drawn) | Pfa1 cells | > 5.70 |
| c1ccc2c(c1)CCC2NC1=Nc2ccccc2NC12CCNCC2 (stereo not drawn) | Pfa1 cells | > 7.00 |
| c1csc(CNC2=Nc3ccccc3NC23CCCCC3)c1 | Pfa1 cells | > 5.30 |
| c1ccc2c(c1)N=C(NCCc1c[nH]c3ccccc13)C1(CCNCC1)N2 | Pfa1 cells | > 7.00 |
| c1ccc2c(c1)CCCC2NC1=Nc2ccccc2NC12CCNCC2 (stereo not drawn) | Pfa1 cells | > 7.00 |
| Clc1cc2c(cc1Cl)NC1(CCCCC1)C(NCc1cccnc1)=N2 | Pfa1 cells | > 6.30 |
| Cc1cc(CNC2=Nc3ccccc3NC23CCCCC3)on1 | Pfa1 cells | > 5.30 |

All figures here come from patent US10647687B2.
